Taken from ChEMBL document CHEMBL1240387.

# Tested on: Chlamydia trachomatis
# Test summary: Antimicrobial activity against Chlamydia trachomatis after 72 hrs by twofold serial dilution method
# Type: functional
compounds and their reported MIC90
Kindly answer with a numeric value in mg/L, unit omitted.

See these solved cases before continuing.
Query smiles | Target of assay | Uom | MIC90
CC[C@H]1OC(=O)[C@H](C)C(=O)[C@H](C)[C@@H](O[C@@H]2O[C@H](C)C[C@H](N(C)C)[C@H]2O)[C@](C)(OC)C[C@@H](C)C(=O)[C@H](C)[C@H]2N(CCCCn3cnc(-c4cccnc4)c3)C(=O)O[C@]12C | Chlamydia trachomatis | mg/L | 0.06
CC[C@H]1OC(=O)[C@@](C)(F)C(=O)[C@H](C)[C@@H](O[C@@H]2O[C@H](C)C[C@H](N(C)C)[C@H]2O)[C@](C)(OC)C[C@@H](C)C(=O)[C@H](C)[C@H]2N(CCCCn3cc(-c4cccc(N)c4)nn3)C(=O)O[C@]12C | Chlamydia trachomatis | mg/L | 0.25
CC[C@H]1OC(=O)[C@H](C)[C@@H](O[C@H]2C[C@@](C)(OC)[C@@H](O)[C@H](C)O2)[C@H](C)[C@@H](O[C@@H]2O[C@H](C)C[C@H](N(C)C)[C@H]2O)[C@](C)(OC)C[C@@H](C)C(=O)[C@H](C)[C@@H](O)[C@]1(C)O | Chlamydia trachomatis | mg/L | 0.06
C[C@H]1c2cccc(O)c2C(=O)C2=C(O)[C@]3(O)C(=O)C(C(N)=O)=C(O)[C@@H](N(C)C)[C@@H]3[C@@H](O)[C@@H]21.O | Chlamydia trachomatis | mg/L | 0.06

// below: MIC90 requested for another compound
Query string: Would you mind telling me what MIC90 value was observed for CC[C@H]1OC(=O)[C@H](C)[C@@H](O[C@H]2C[C@@](C)(OC)[C@@H](O)[C@H](C)O2)[C@H](C)[C@@H](O[C@@H]2O[C@H](C)C[C@H](N(C)C)[C@H]2O)[C@](C)(O)C[C@@H](C)CN(C)[C@H](C)[C@@H](O)[C@]1(C)O ?
Result string: 0.125
